All figures here come from patent US9115092B2.

Listed here are compounds together with their documented IC50.
# testTarget: PI3Kα (wild-type), P110/P85α (Homo sapiens, UniProt P42336)
# Sequence (P42336 whole entry): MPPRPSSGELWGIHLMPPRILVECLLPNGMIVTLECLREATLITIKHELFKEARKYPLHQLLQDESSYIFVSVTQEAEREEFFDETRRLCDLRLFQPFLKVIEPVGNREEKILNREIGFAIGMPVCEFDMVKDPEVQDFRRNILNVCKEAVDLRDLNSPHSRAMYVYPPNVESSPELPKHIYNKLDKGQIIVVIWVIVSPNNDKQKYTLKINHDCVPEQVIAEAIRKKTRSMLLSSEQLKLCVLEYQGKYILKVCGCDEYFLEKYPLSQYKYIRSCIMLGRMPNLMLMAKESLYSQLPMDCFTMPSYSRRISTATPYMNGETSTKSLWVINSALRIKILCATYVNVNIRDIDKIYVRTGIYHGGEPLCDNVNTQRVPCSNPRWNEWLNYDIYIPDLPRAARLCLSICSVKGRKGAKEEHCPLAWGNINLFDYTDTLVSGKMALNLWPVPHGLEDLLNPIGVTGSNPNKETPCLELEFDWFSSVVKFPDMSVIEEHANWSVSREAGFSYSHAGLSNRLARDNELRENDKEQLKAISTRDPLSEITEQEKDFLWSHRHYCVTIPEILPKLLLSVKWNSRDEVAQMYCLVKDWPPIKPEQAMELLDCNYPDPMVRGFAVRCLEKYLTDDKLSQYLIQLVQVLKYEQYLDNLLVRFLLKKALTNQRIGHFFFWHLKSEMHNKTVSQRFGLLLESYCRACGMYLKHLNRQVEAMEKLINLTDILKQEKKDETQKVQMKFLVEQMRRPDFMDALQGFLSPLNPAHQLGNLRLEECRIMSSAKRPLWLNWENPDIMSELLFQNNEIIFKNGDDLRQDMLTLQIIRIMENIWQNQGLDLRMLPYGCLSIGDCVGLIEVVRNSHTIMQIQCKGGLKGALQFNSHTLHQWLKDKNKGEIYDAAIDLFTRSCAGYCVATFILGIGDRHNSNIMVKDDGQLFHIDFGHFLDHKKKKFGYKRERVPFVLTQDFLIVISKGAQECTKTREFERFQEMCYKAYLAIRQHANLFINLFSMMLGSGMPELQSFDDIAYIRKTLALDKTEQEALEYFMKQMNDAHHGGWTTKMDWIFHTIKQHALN
# Sequence (P27986 whole entry partner): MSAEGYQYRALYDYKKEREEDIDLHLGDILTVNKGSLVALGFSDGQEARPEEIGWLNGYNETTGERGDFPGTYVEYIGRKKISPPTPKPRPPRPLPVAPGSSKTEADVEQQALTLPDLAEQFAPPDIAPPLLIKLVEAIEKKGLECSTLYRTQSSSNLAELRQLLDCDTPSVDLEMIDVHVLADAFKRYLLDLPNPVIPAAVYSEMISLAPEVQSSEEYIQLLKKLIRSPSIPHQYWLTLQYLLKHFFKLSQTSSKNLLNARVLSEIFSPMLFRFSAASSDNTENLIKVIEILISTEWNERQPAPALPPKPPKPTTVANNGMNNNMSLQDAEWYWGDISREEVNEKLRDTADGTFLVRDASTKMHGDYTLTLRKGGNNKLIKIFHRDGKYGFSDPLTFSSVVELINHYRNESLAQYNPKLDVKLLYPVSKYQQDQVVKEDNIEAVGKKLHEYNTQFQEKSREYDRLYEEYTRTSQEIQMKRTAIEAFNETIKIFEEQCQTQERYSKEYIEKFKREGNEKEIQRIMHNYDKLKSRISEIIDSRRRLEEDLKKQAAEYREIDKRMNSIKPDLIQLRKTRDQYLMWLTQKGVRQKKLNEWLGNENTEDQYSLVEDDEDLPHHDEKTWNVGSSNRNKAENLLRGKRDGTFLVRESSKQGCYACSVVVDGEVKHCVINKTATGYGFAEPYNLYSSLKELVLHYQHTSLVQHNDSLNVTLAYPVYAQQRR
# method: PI3 Kinase TR-FRET assay, PI3Kα (wild-type)

Here is how some compounds turned out for IC50.
- compound: "CN(C)CCN(C)C(=O)c1ccc(NC(=O)Nc2ccc(-c3nc(N4CCOCC4)c4ccc(-c5ccncc5)cc4n3)cc2)cc1 [Example 72]"
  obsValue: "< 50 nM"
- compound: "CN(C)C(=O)c1ccc(NC(=O)Nc2ccc(-c3nc(N4CCOCC4)c4ccc(-c5cccnc5)cc4n3)c(F)c2)cc1 [Example 243]"
  obsValue: "< 50 nM"
- compound: "CN(C)C(=O)c1ccc(NC(=O)Nc2ccc(-c3nc(N4CCOCC4)c4ccc(-c5cccnc5F)cc4n3)cc2)cc1F [Example 255]"
  obsValue: "50 to 200 nM"
- compound: "CC1CN(c2nc(-c3ccc(NC(=O)Nc4ccc(C(=O)N(C)C)cc4)cc3)nc3cc(-c4cncnc4)ccc23)CC(C)O1 (stereo not drawn) [Example 128]"
  obsValue: "201 to 10000 nM"
- compound: "CN(C)C(=O)c1ccc(NC(=O)Nc2ccc(-c3nc(N4CCOCC4)c4ccc(-c5cnn(C)c5)cc4n3)c(F)c2)cc1 [Example 249]"
  obsValue: "50 to 200 nM"

What does the record list as IC50 for CN(C)C(=O)c1ccc(NC(=O)Nc2ccc(-c3nc(N4CCOCC4)c4ccc(-c5cnn(C)c5)cc4n3)cn2)cc1 [Example 55] ? < 50 nM

What would you report for CN(C)C(=O)c1ccc(NC(=O)Nc2ccc(-c3nc(N4CCOCC4)c4ccc(-c5cnc(N)nc5)cc4n3)cc2F)cc1 [Example 110] ? 201 to 10000 nM

What would you report for CN(C)C(=O)c1ccc(NC(=O)Nc2ccc(-c3nc(N4CCOCC4)c4ccc(-c5cccnc5F)cc4n3)c(F)c2)cc1 [Example 241] ? < 50 nM

###

# testTarget: PI3Kα (wild-type), P110/P85α (Homo sapiens, UniProt P42336)
# method: PI3 Kinase TR-FRET assay, PI3Kα (wild-type)
outcomeMeasure: IC50

Here is how some molecules turned out for IC50.
- molecule: "CN(C)C(=O)c1ccc(NC(=O)Nc2ccc(-c3nc(N4CCOCC4)c4ncc(-c5cccnc5)cc4n3)cc2F)cc1"
  outcomeMeasure: "IC50"
  obsValue: "< 50 nM"
- molecule: "Cc1ccc(-c2cnc3c(N4CCOCC4)nc(-c4ccc(NC(=O)Nc5ccc(C(=O)N(C)C)cc5)cc4)nc3c2)o1"
  outcomeMeasure: "IC50"
  obsValue: "< 50 nM"

What does the record list as IC50 for "Cc1ccc(-c2ccc3c(N4CCOCC4)nc(-c4ccc(NC(=O)Nc5ccc(C(=O)N(C)C)c(F)c5)cc4)nc3c2)o1" ? 50 to 200 nM

What would you report for "N[C@@H]1CCN(C(=O)c2ccc(NC(=O)Nc3ccc(-c4nc(N5CCOCC5)c5ccc(-c6cncnc6)cc5n4)cc3)cc2)C1" ? < 50 nM

What would you report for "CN1CCN(C(=O)c2ccc(NC(=O)Nc3ccc(-c4nc(N5CCOCC5)c5cc(F)c(-c6cccnc6)cc5n4)cc3)cc2)CC1" ? < 50 nM

What would you report for "CN(C)C(=O)c1ccc(NC(=O)Nc2ccc(-c3nc(N4CCOCC4)c4ncc(-c5cnn(C)c5)cc4n3)cc2)cc1F" ? < 50 nM
